The measured values listed here are drawn from a melting point compilation (Tetko et al.).

# test conditions: a range is the spread between reports
reported endpoint: melting point

Inquiry: Quick check: melting point of CCCCCCCCCCCCCCCC(=O)OCC(COC(=O)CCCCCCCCCCCCCCC)OC(=O)CCCCCCCCCCCCCCC ?
Reply text: 62 to 66.5 °C

Inquiry: Quick check: melting point of Fc1c(F)c(F)c2c(F)c(F)c(F)c(F)c2c1F ?
Reply text: 87 to 87.5 °C

Inquiry: Quick check: melting point of O=C1CCCCC1=O ?
Reply text: 37 to 40 °C

Inquiry: Quick check: melting point of CNC(=O)c1ccccc1 ?
Reply text: 79 to 82 °C

Inquiry: Quick check: melting point of C=CC(C)CC (stereo not given) ?
Reply text: -154 to -153 °C

Inquiry: Quick check: melting point of Cc1ccc2ccccc2n1 ?
Reply text: -2 to -1.5 °C

Inquiry: Quick check: melting point of O=Cc1cccc([N+](=O)[O-])c1 ?
Reply text: 58 to 59 °C

Inquiry: Quick check: melting point of O=C(O)Cc1cccc(O)c1 ?
Reply text: 130 to 132 °C

Inquiry: Quick check: melting point of COC(=O)CCC(=O)OC ?
Reply text: 19 to 19.5 °C

Inquiry: Quick check: melting point of CC(=O)C(C)=O ?
Reply text: -3 to -1.2 °C

Inquiry: Quick check: melting point of NNC=O ?
Reply text: 55 to 57 °C

Inquiry: Quick check: melting point of CC(C)(Br)C(=O)O ?
Reply text: 44 to 48.5 °C

Inquiry: Quick check: melting point of OC(C(F)(F)F)C(F)(F)F ?
Reply text: -4 to -3 °C

Inquiry: Quick check: melting point of CC(C)(c1ccc(O)cc1)c1ccc(O)cc1 ?
Reply text: 153 to 156 °C

Inquiry: Quick check: melting point of O=S(Cl)Cl ?
Reply text: -105 to -104 °C

====

# test conditions: a range is the spread between reports
reported endpoint: melting point

Inquiry: Quick check: melting point of c1ccc2sccc2c1 ?
Reply text: 30 to 32 °C

Inquiry: Quick check: melting point of CCCCCCCCCCC(=O)O ?
Reply text: 28 to 28.6 °C

Inquiry: Quick check: melting point of COc1ccc(C(=O)O)cc1O ?
Reply text: 252 to 253 °C

Inquiry: Quick check: melting point of CC(C)C(Br)C(=O)O (centres undefined) ?
Reply text: 39 to 44 °C

Inquiry: Quick check: melting point of O=C(O)COc1ccccc1Cl ?
Reply text: 148 to 150 °C

Inquiry: Quick check: melting point of Nc1cccc2cnccc12 ?
Reply text: 128 to 129 °C

Inquiry: Quick check: melting point of CC=C1CCCC1 ?
Reply text: -130 °C

Inquiry: Quick check: melting point of Cc1ccc2n[nH]nc2c1 ?
Reply text: 81 °C

Inquiry: Quick check: melting point of CCCI ?
Reply text: -101 °C

====

# test conditions: a range is the spread between reports
reported endpoint: melting point

Inquiry: Quick check: melting point of CC(C)(C)I ?
Reply text: -38.2 to -38 °C

Inquiry: Quick check: melting point of O=C(O)c1ccc([N+](=O)[O-])cc1[N+](=O)[O-] ?
Reply text: 181 to 182 °C

Inquiry: Quick check: melting point of CC12C=CC(=O)C=C1CCC1C2C(O)CC2(C)C1CCC2(O)C(=O)CO (stereo unspecified) ?
Reply text: 235 to 240 °C

Inquiry: Quick check: melting point of O=C(O)c1ccccc1-c1c2cc(Br)c(=O)c(Br)c-2oc2c(Br)c(O)c(Br)cc12 ?
Reply text: 296 to 300 °C

Inquiry: Quick check: melting point of CCOC(=O)c1cc([N+](=O)[O-])cc([N+](=O)[O-])c1 ?
Reply text: 92 to 94 °C

Inquiry: Quick check: melting point of CC(C)CN ?
Reply text: -87 to -85 °C

Inquiry: Quick check: melting point of CCCCCCCCCCCCCCCCCCBr ?
Reply text: 28 to 28.2 °C

Inquiry: Quick check: melting point of CC(=O)OC1CCC2(C)C(CC(=O)C3C4CCC(=O)C4(C)CCC32)C1 (stereo unspecified) ?
Reply text: 164 to 165 °C

Inquiry: Quick check: melting point of COC(=O)C(C)C ?
Reply text: -85 to -84.7 °C

Inquiry: Quick check: melting point of O=C(O)c1cc2ccccc2cc1O ?
Reply text: 220 to 222 °C

Inquiry: Quick check: melting point of FC(Cl)(Cl)Cl ?
Reply text: -111 to -110 °C

Inquiry: Quick check: melting point of CCCCCCCCCCCCCO ?
Reply text: 32.5 to 34 °C

Inquiry: Quick check: melting point of O=c1c2ccccc2sc2ccccc12 ?
Reply text: 209 to 212 °C

Inquiry: Quick check: melting point of c1cc2c3c(c1)CCCN3CCC2 ?
Reply text: 35 to 40 °C

Inquiry: Quick check: melting point of O=C1CN(N=Cc2ccc([N+](=O)[O-])o2)C(=O)N1 ?
Reply text: 263 to 268 °C

Inquiry: Quick check: melting point of CN(C)c1cccc([N+](=O)[O-])c1 ?
Reply text: 59 to 60.5 °C

Inquiry: Quick check: melting point of O=C1C=CC(=O)N1c1ccccc1 ?
Reply text: 89 to 90.5 °C

Inquiry: Quick check: melting point of CCOC(=O)C(O)(c1ccc(Cl)cc1)c1ccc(Cl)cc1 ?
Reply text: 36 to 37 °C

Inquiry: Quick check: melting point of COC(=O)c1cccnc1 ?
Reply text: 42 to 42.5 °C

Inquiry: Quick check: melting point of O=C(Oc1ccccc1)c1ccccc1 ?
Reply text: 67 to 71 °C

Inquiry: Quick check: melting point of Fc1cc(F)c(F)c(F)c1F ?
Reply text: -48 to -47.3 °C

Inquiry: Quick check: melting point of CCCC(C)C1(CC)C(=O)NC(=O)NC1=O (stereo unspecified) ?
Reply text: 130 °C

Inquiry: Quick check: melting point of CCOCCOCCO ?
Reply text: -80 to -76 °C

Inquiry: Quick check: melting point of Brc1ccc(Br)c2ccccc12 ?
Reply text: 81 to 83 °C

Inquiry: Quick check: melting point of COC(=O)CCl ?
Reply text: -32.1 to -32 °C

Inquiry: Quick check: melting point of C[C@H]1CC[C@@H](O)CC1 ?
Reply text: -10 to -9.2 °C

Inquiry: Quick check: melting point of Cc1cc(C)nc(N)n1 ?
Reply text: 152 to 153 °C

Inquiry: Quick check: melting point of O=Cc1cccc(Cl)c1 ?
Reply text: 17 to 18 °C

Inquiry: Quick check: melting point of NCCCCCO ?
Reply text: 35 to 38.5 °C

Inquiry: Quick check: melting point of BrCCCCBr ?
Reply text: -20 to -16.5 °C

Inquiry: Quick check: melting point of Oc1cccc(Cl)c1Cl ?
Reply text: 56 to 59 °C
